System: SF-295 CNS
Assay: NCI-60 one-dose screen, 48 h
Details: 10 µM unless noted
About 83,000 compounds went through this panel and 20% of them were active in at least one assay; those are over-represented in the sample as a whole. The source made the active and inactive calls. How the source made its calls: active means growth percent below 10; inactive means the rest.
Outcome codes: active, inactive

compound | target of assay | label
Oc1ccc(Cl)cc1Cc1cc(Cl)ccc1O | SF-295 CNS | inactive
CN=C(N)N/N=C(\c1ccccc1)c1ccc(Br)cc1 | SF-295 CNS | active
CCCCCCCCC(=O)OCCCC(CCC(CCC1CCCO1)OC(=O)CCCCCCCC)OC(=O)CCCCCCCC (stereo not drawn) | SF-295 CNS | inactive
C[n+]1ccccc1C[n+]1ccccc1 | SF-295 CNS | inactive
O=C1C=CC(=O)c2c(O)c(CO)c(CO)c(O)c21 | SF-295 CNS | inactive
CCOC(=O)/C(=C\c1ccc2ccccc2c1)P(=O)(OCC)OCC | SF-295 CNS | inactive
S=C(S)OCN1CCOCC1 | SF-295 CNS | inactive
NC(CS/C(Cl)=C/Cl)C(=O)O (stereo not drawn) | SF-295 CNS | active
c1ccc(-c2cccc(-c3ccccn3)n2)nc1 | SF-295 CNS | inactive
CCCCCCCCCCCC[n+]1ccccc1 (tested in a mixture with another compound) | SF-295 CNS | active
O=C(CCl)N(c1ccccc1)c1ccccc1 | SF-295 CNS | inactive
Oc1c(Cl)cc(Cl)cc1C=NCC1CCC(CN=Cc2cc(Cl)cc(Cl)c2O)CC1 (stereo not drawn) | SF-295 CNS | inactive
CC(C)=CCCC(C)C1=C(O)C(=O)C(C)=CC1=O (stereo not drawn) | SF-295 CNS | inactive
CCC1CCCCN1C(=S)N/N=C(\C)c1ccccn1 (stereo not drawn) | SF-295 CNS | inactive
NNc1ccc(Cl)cc1Cl | SF-295 CNS | inactive
CCCCCCCCCCCC1N=C(N)N=C(N)N1c1cccc(Br)c1 (stereo not drawn) | SF-295 CNS | inactive
CC1(C)CCCC2=C1C(=O)N(SC(Cl)(Cl)Cl)C2=O | SF-295 CNS | inactive
NC(=S)N/N=C/c1ncccc1O | SF-295 CNS | inactive
O=C1Nc2ccc(Br)cc2C1=O | SF-295 CNS | inactive
O=C1c2ccccc2Cc2cccc(Cl)c21 | SF-295 CNS | inactive
Nc1cc(-c2ccccc2)ccc1O | SF-295 CNS | inactive
O=C(c1ccc(O)c(Br)c1)c1ccc(O)c(Br)c1 | SF-295 CNS | inactive
NC(=S)Nc1ccc2c(c1)Cc1ccccc1-2 | SF-295 CNS | inactive
O=C1C=CC(=O)N1C1CCCCCCCCCCC1 | SF-295 CNS | inactive
COc1ccc2nc3cc(Cl)ccc3c(NCCCCCN3CCCCC3)c2c1 | SF-295 CNS | inactive
Cc1cc(Br)c2nsnc2c1[N+](=O)[O-] | SF-295 CNS | inactive
CCCc1cc(=O)oc2c3c(c4c(c12)OC(C)(C)CC4)OC(C)[C@H](C)[C@@H]3O (stereo partly drawn) | SF-295 CNS | inactive
CC(C)=C1C=C2CC[C@@H]3[C@](C)(CCC[C@@]3(C)C(=O)O)[C@H]2CC1 | SF-295 CNS | inactive
C(=N\Nc1ccc2ccccc2n1)/c1ccccn1 | SF-295 CNS | inactive
O=C(Nc1cccc(C(F)(F)F)c1)Oc1ccc(Cl)c2cccnc12 | SF-295 CNS | active
O=C/C=C/c1ccc([N+](=O)[O-])cc1 | SF-295 CNS | inactive
O=[N+]([O-])c1ccc(N2CCN(Cc3ccccc3)CC2)c2c1no[n+]2[O-] | SF-295 CNS | active
O=C(c1ccccc1)C(Br)[N+](=O)[O-] (stereo not drawn) | SF-295 CNS | inactive
CN(C)c1ccc(/C=C/c2cc[n+](C)c(/C=C/c3ccc(N(C)C)cc3)c2)cc1 | SF-295 CNS | active
COc1cc(NCc2ccc3nc(N)nc(N)c3c2C)cc(OC)c1OC (tested in a mixture with another compound) | SF-295 CNS | inactive
O/N=C1\c2ccccc2-c2ccc(F)cc21 | SF-295 CNS | inactive
O=C(Cc1nc2cc(Cl)c(Cl)cc2nc1CC(=O)c1ccccc1)c1ccccc1 | SF-295 CNS | inactive
O=[N+]([O-])c1ccc([I+]c2ccccc2)cc1 | SF-295 CNS | inactive
CCCCCCCCCCCCCCCc1ccc(C(=O)C[n+]2ccccc2)cc1 | SF-295 CNS | active
CCCCCC/C=C1\CCC(CN2CCCC2)C1=O (stereo not drawn) | SF-295 CNS | inactive
COc1ccc2c(c1)c(CC(=O)O)c(C)n2C(=O)c1ccc(Cl)cc1 | SF-295 CNS | inactive
CCCCCCCCCCCCN1C(C)=CS/C1=C\C=C\c1scc(C)[n+]1CCCCCCCCCCCC | SF-295 CNS | active
CC1=CC(=O)C=CC1(C)C(Cl)(Cl)Cl (stereo not drawn) | SF-295 CNS | inactive
